Can you tell me melting point for the items I'm about to list?

## Task Would you mind telling me what melting point value was observed for O=C(NC1(C(=O)O)CCCC1)c1ccc2[nH]ncc2c1 ?
## Result 285 to 287 °C

## Task What do you have for O=C(NCCCN1CCCC1=O)OCC(F)(F)F ?
## Result 35 to 37 °C

## Task What do you have for CCN(CC)C(=O)CCC(=O)O ?
## Result 74 to 76 °C

## Task What do you have for O=C1OC(CBr)CN1c1ccccc1 (stereo not drawn) ?
## Result 102 to 104 °C

## Task What do you have for Cc1nn(Cc2ccc(F)cc2)c2sc(C(=O)O)cc12 ?
## Result 227 to 229 °C

## Task What do you have for O=C(O)C1(c2ccc(Br)cc2)CCCC1 ?
## Result 176 to 178 °C

## Task What do you have for CCC(Br)C(=O)c1ccc(NC(C)=O)cc1 (stereo not drawn) ?
## Result 107 to 109 °C

## Task What do you have for CC1CC(C)CN(S(=O)(=O)c2ccc(C(=O)O)cc2)C1 (stereo not drawn) ?
## Result 275 to 277 °C

## Task What do you have for CCS(=O)(=O)Nc1ccc(N)cc1 ?
## Result 88 to 90 °C

## Task What do you have for NC(=O)C1(O)Cc2ccccc2C1 ?
## Result 186 to 188 °C

## Task What do you have for CN1C(=O)CNC(=O)c2ccccc21 ?
## Result 175 to 177 °C

## Task What do you have for NC(=S)Cc1cccc(Cl)c1 ?
## Result 105 to 107 °C

## Task What do you have for NC(=O)c1cnc(N)c(Cl)c1 ?
## Result 217 to 219 °C

## Task What do you have for NC(=O)C1(Br)CCC1 ?
## Result 150 to 152 °C

## Task What do you have for COc1ccc2[nH]cc(C3=CCNCC3)c2c1 ?
## Result 181 to 183 °C

## Task What do you have for O=C(O)C1=NN(c2ccccc2)C(=O)CC1 ?
## Result 169 to 171 °C

## Task What do you have for O=C(CCl)c1nnc(-c2ccccc2)o1 ?
## Result 123 to 125 °C

## Task What do you have for COc1cc(Br)cc([N+](=O)[O-])c1 ?
## Result 86 to 88 °C

## Task What do you have for COc1ccc(/C=C/C(=O)O)cc1F ?
## Result 222 to 224 °C

## Task What do you have for ClCc1nnc(-c2cccc(Br)c2)o1 ?
## Result 74 to 76 °C

## Task What do you have for CC(C)(C)c1ccc(OCCC(=O)O)cc1 ?
## Result 94 to 96 °C

## Task What do you have for O=C1NC(=O)C2(CCCN(Cc3ccccc3)C2)N1 (stereo not drawn) ?
## Result 209 to 211 °C

## Task What do you have for CC1Oc2c(ccc(Cl)c2Cl)C1=O (stereo not drawn) ?
## Result 99 to 101 °C

## Task What do you have for Cc1nc2ccnn2c(C)c1C(=O)O ?
## Result 194 to 196 °C

## Task What do you have for O=C(O)CN1CC(=O)Nc2ccccc21 ?
## Result 218 to 220 °C

## Task What do you have for Cn1cc(C#N)cc1C(=O)O ?
## Result 239 to 241 °C

## Task What do you have for CC(=O)c1c[nH]c(C(=O)O)c1 ?
## Result 201 to 203 °C

## Task What do you have for CC(=O)N(C)CCCC(=O)O ?
## Result 98 to 100 °C
